For each record, write down the corresponding minimum inhibitory concentration (MIC).
- System: Staphylococcus aureus Smith
- Procedure text: MIC, two-fold agar dilution method
- Format: cell-based
- Assay setup: nutrient agar
Form: value (number only, do not type unit).

minimum inhibitory concentration (MIC) for Cc1c(N)nc([C@H](CC(N)=O)NC[C@@H](N)C(N)=O)nc1C(=O)N[C@H](C(=O)N[C@H](C)[C@@H](O)CC(=O)N[C@@H](C(=O)NC(O[C@@H]1O[C@@H](C)[C@@H](N)[C@@H](O)[C@H]1O)C(O)c1nc(-c2nc(C(=O)NCCCNCCCCN)cs2)cs1)[C@@H](C)O)C(O[C@@H]1O[C@@H](CO)[C@H](O)[C@@H](O)[C@@H]1O[C@H]1O[C@H](CO)[C@@H](O)[C@@H](OC(N)=O)[C@@H]1O)c1cnc[nH]1 (stereo partly drawn) [Tallysomycin B, reference compound] is 0.4

minimum inhibitory concentration (MIC) measured on Cc1c(N)nc(C(CC(N)=O)NCC(N)C(N)=O)nc1C(=O)NC(C(=O)NC(C)C(O)CC(=O)NC(C(=O)NC(OC1OC(C)C(N)C(O)C1O)C(O)c1nc(-c2nc(C(=O)NCCCN3CCCCC3C)cs2)cs1)C(C)O)C(OC1OC(CO)C(O)C(O)C1OC1OC(CO)C(O)C(OC(N)=O)C1O)c1c[nH]cn1 (stereo not drawn) [Tallysomycin S13b] = 6.3

For record Cc1c(N)nc(C(CC(N)=O)NCC(N)C(N)=O)nc1C(=O)NC(C(=O)NC(C)C(O)CC(=O)NC(C(=O)NC(OC1OC(C)C(N)C(O)C1O)C(O)c1nc(-c2nc(C(=O)NCCCN(CCO)CCO)cs2)cs1)C(C)O)C(OC1OC(CO)C(O)C(O)C1OC1OC(CO)C(O)C(OC(N)=O)C1O)c1c[nH]cn1 (stereo not drawn) the listed minimum inhibitory concentration (MIC) is 0.4
